Exercise: for every item that follows, state its recorded IC50.
System: SW480
Assay: Cytotoxicity against human SW480 cells incubated for 72 hrs by MTT assay
Format: functional, cell-based
Settings: SW480, 72 h
Provide only the numeric value, understood in nM.

*Q* Return IC50 measured with SW480 given this compound: CC[C@@H](C(=O)[C@@H](C)[C@@H](O)[C@H](C)[C@@H]1O[C@@H]([C@@H](CC)C(=O)OCCCC[P+](c2ccccc2OC)(c2ccccc2OC)c2ccccc2OC)CC[C@@H]1C)[C@H]1O[C@]2(C=C[C@@H](O)[C@]3(CC[C@@](C)([C@H]4CC[C@](O)(CC)[C@H](C)O4)O3)O2)[C@H](C)C[C@@H]1C.[Br-]
*A* 560

*Q* Find the measured IC50: item CCCC[P+](CCCC)(CCCC)CCCCOC(=O)[C@H](CC)[C@H]1CC[C@H](C)[C@H]([C@@H](C)[C@H](O)[C@H](C)C(=O)[C@H](CC)[C@H]2O[C@]3(C=C[C@@H](O)[C@]4(CC[C@@](C)([C@H]5CC[C@](O)(CC)[C@H](C)O5)O4)O3)[C@H](C)C[C@@H]2C)O1.[Br-] , target or system SW480.
*A* 490

*Q* Lab note: need IC50 with SW480 for entry CC[C@@H](C(=O)[C@@H](C)[C@@H](O)[C@H](C)[C@@H]1O[C@@H]([C@@H](CC)C(=O)OCCCC[P+](c2ccccc2)(c2ccccc2)c2ccccc2)CC[C@@H]1C)[C@H]1O[C@]2(C=C[C@@H](O)[C@]3(CC[C@@](C)([C@H]4CC[C@](O)(CC)[C@H](C)O4)O3)O2)[C@H](C)C[C@@H]1C.[Br-] , please look it up.
*A* 390

*Q* Could you share what IC50 was measured for CC[C@@H](C(=O)[C@@H](C)[C@@H](O)[C@H](C)[C@@H]1O[C@@H]([C@@H](CC)C(=O)OCCCC[P+](c2ccc(C)cc2)(c2ccc(C)cc2)c2ccc(C)cc2)CC[C@@H]1C)[C@H]1O[C@]2(C=C[C@@H](O)[C@]3(CC[C@@](C)([C@H]4CC[C@](O)(CC)[C@H](C)O4)O3)O2)[C@H](C)C[C@@H]1C.[Br-] , tested on SW480?
*A* 440

*Q* Recall the recorded IC50 for CC[C@@H](C(=O)[C@@H](C)[C@@H](O)[C@H](C)[C@@H]1O[C@@H]([C@@H](CC)C(=O)OCCCCCC[P+](c2ccc(C)cc2)(c2ccc(C)cc2)c2ccc(C)cc2)CC[C@@H]1C)[C@H]1O[C@]2(C=C[C@@H](O)[C@]3(CC[C@@](C)([C@H]4CC[C@](O)(CC)[C@H](C)O4)O3)O2)[C@H](C)C[C@@H]1C.[Br-] with SW480 and state it.
*A* 610

*Q* Provide the documented IC50 with SW480 as the system for CCCC[P+](CCCC)(CCCC)CCCCCCOC(=O)[C@H](CC)[C@H]1CC[C@H](C)[C@H]([C@@H](C)[C@H](O)[C@H](C)C(=O)[C@H](CC)[C@H]2O[C@]3(C=C[C@@H](O)[C@]4(CC[C@@](C)([C@H]5CC[C@](O)(CC)[C@H](C)O5)O4)O3)[C@H](C)C[C@@H]2C)O1.[Br-]
*A* 500

*Q* # returns recorded IC50 (system: SW480) for CC[C@@H](C(=O)[C@@H](C)[C@@H](O)[C@H](C)[C@@H]1O[C@@H]([C@@H](CC)C(=O)OCc2ccccc2)CC[C@@H]1C)[C@H]1O[C@]2(C=C[C@@H](O)[C@]3(CC[C@@](C)([C@H]4CC[C@](O)(CC)[C@H](C)O4)O3)O2)[C@H](C)C[C@@H]1C
*A* 3480
